Measured values drawn from PubChem BioAssay for this set.

biological target: Nuclear receptor coactivator 1 (Homo sapiens) (UniProt Q15788); assay: SRC1 coactivator transcriptional activity inhibitors, confirmation, cell-based, luminescence, quadruplicate (AID 588820); details: HEK293 GAL4-SRC1 luciferase reporter, at 3.6 µM, active compounds read high;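 note: 0% = DMSO wells and 100% = gossypol 36 µM treated wells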
Sequence (Q15788 whole entry, looked up, the tested form may be a part): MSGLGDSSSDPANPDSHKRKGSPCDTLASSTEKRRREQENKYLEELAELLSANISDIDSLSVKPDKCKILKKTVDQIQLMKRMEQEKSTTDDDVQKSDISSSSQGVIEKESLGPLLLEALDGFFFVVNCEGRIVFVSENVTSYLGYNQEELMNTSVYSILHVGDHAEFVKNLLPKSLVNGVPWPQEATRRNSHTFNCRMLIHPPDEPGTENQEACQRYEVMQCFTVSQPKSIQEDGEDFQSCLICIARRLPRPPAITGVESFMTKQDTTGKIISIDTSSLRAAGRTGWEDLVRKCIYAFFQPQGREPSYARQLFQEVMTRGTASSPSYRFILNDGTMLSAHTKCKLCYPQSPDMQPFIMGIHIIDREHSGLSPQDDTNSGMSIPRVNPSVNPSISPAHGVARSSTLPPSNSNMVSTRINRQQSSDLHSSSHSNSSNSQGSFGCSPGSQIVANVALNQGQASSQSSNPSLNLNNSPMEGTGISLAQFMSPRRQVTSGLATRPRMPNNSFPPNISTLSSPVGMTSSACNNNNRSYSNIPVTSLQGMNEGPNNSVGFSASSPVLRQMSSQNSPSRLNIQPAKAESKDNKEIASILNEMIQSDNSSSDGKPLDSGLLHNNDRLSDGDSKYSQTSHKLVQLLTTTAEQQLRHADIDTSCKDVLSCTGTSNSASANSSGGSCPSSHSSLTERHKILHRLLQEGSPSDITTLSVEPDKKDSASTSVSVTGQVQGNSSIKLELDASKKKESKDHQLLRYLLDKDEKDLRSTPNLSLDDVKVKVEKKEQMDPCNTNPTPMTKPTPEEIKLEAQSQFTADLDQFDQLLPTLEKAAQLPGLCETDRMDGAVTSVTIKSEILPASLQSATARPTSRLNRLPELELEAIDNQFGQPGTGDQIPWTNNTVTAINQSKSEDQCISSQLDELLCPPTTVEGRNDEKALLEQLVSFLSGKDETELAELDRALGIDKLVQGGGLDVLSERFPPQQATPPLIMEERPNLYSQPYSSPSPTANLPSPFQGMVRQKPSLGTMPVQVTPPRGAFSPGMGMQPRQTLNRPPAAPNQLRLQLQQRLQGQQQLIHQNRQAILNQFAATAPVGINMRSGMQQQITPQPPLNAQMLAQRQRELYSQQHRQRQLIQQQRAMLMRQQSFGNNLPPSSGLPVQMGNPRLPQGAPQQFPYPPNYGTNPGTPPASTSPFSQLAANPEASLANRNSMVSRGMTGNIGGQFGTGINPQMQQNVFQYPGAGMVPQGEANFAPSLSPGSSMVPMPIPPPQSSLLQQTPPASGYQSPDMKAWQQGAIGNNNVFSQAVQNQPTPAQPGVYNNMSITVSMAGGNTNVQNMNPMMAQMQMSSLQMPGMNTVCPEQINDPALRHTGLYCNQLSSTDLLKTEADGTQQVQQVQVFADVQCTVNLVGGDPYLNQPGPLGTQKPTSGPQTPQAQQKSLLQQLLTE
recorded metric: inhibition (%)
Please respond with the number in % and leave the unit unwritten.

Known results for compounds:
| compound | observed |
| --- | --- |
| COc1ccc(CCC(=O)Nc2ccc(Cl)c(S(=O)(=O)N3CCCC3)c2)cc1 | 12.1 |
| COc1ccc2[nH]c3c(c2c1)CCNC3=O | 62.3 |
| CC1CC2=C(CC1/C=N/NC(N)=S)C(C)(C)CCC2 (stereo unspecified) | 32.9 |
| CCCC(C)NC(=O)C1c2ccccc2Oc2ccccc21 (stereo unspecified) | -0.82 |
| O=C(NCCc1cccc(Cl)c1)c1ccc(OC2CCN(Cc3ccccn3)CC2)cc1 | -20.2 |

Recorded inhibition for Cc1cccc(Oc2ncnc(N)c2[N+](=O)[O-])c1C with Nuclear receptor coactivator 1 (Homo sapiens) (UniProt Q15788), please?
-14.1

Recorded inhibition for O=c1[nH]c(=O)n([C@H]2C[C@H](O)[C@@H](CO)O2)cc1F with Nuclear receptor coactivator 1 (Homo sapiens) (UniProt Q15788), please?
46

Recorded inhibition for Cc1ccc(C(=O)c2cccc(N)c2)cc1C with Nuclear receptor coactivator 1 (Homo sapiens) (UniProt Q15788), please?
-41.2

Recorded inhibition for Brc1ccc2ncnc(NCc3cccnc3)c2c1 with Nuclear receptor coactivator 1 (Homo sapiens) (UniProt Q15788), please?
55.9

Recorded inhibition for COc1ccc(NS(=O)(=O)c2ccc(-c3cnc(C4CC4)o3)cc2)cc1OC with Nuclear receptor coactivator 1 (Homo sapiens) (UniProt Q15788), please?
-15.9

Recorded inhibition for COc1ccc(N2CCN(C(=O)c3oc4ccccc4c3NC(=O)CCc3cc(OC)no3)CC2)cc1 with Nuclear receptor coactivator 1 (Homo sapiens) (UniProt Q15788), please?
1.78

----------
target: Neuropeptide Y receptor type 2 (Homo sapiens); test: NPY-Y2 potentiators or agonists, confirmation, cell-based (AID 1539); details: cell-based NPY-Y2 potentiator/agonist assay; at 3.6 µM; active compounds read high
This is one part of the list. The source made the active and inactive calls. Rule as the data show it: active = activation above about 33%; inactive = the rest.
recorded metric: activation

| smiles text | recorded metric | observed |
| --- | --- | --- |
| Cc1ccc(CCNC(=O)C2CCN(S(=O)(=O)N3CCCC3)CC2)cc1 | activation | -1.21% (inactive) |
| COc1ccc2nc(NC(=O)NC3CCCCC3)sc2c1 | activation | 40.8% (active) |

Please look at the following compound next.
Data request, read-out activation, for N/C(=N\S(=O)(=O)c1cc(C(F)(F)F)cc(C(F)(F)F)c1)c1cccs1
20.3% (inactive)

----------
Below: a set of entries, each annotated with reported inhibition.
molecular target: Nuclear receptor coactivator 1 (Homo sapiens) (UniProt Q15788); test: SRC1 coactivator transcriptional activity inhibitors, confirmation, cell-based, luminescence, quadruplicate (AID 588820); conditions: HEK293 GAL4-SRC1 luciferase reporter, at 3.6 µM, active compounds read high;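 note: 0% = DMSO wells and 100% = gossypol 36 µM treated wells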
Please respond with the number in % and leave the unit unwritten.

Recorded inhibition for Cc1ccc(-c2nc(-c3ccccn3)no2)cc1 with Nuclear receptor coactivator 1 (Homo sapiens) (UniProt Q15788), please?
29

----------
biological target: Nuclear receptor subfamily 5 group A member 2 (Homo sapiens); assay: LRH-1 (NR5A2) inverse agonists, retest, confirmation, cell-based, luminescence (AID 651613); settings: cell-based LRH-1 luciferase reporter, inverse agonism; at 3.6 µM;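 note: HEK293T cells co-transfected with LRH-1 and StAR promoter luciferase reporter; 0% = vehicle wells and 100% = parental cells lacking receptor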
The source made the active and inactive calls. Cut-off read from the data, not from the text of the source: active = inhibition above about 42%; inactive = the rest.
Entry note: the call must match one of 1.0 = active, 0.0 = inactive

| molecule | assigned category |
| --- | --- |
| COc1ccc(NC(=O)C2Cc3c(-c4cccc(C(C)=O)c4)ccnc3O2)cc1OC (configuration not stated) | 1.0 |

Tell me the assay call for CC1OC(CC(=O)O)CC2=C1C(=O)c1c(O)cccc1C2=O (configuration not stated) please.
1.0

----------
test: cytotoxicity in HEK cells, cytotoxicity control for IDE inhibitor project, cell-based, luminescence (AID 449730); details: HEK293 cytotoxicity, ATP luminescence; at 5.59 µM; active compounds read high;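 note: 0% = vehicle wells and 100% = reference cytotoxic drug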
Some of the results follow.
recorded metric: inhibition (%)
Please respond with the number in % and leave the unit unwritten.

| compound | inhibition / % |
| --- | --- |
| C[n+]1ccc(/C=C/c2c[nH]c3ccccc23)cc1 | 13.1 |
| CC(C(=O)c1ccc(-c2ccccc2)cc1)[n+]1cccc(Br)c1 (stereo not given) | 14.3 |
| CC1(C)Cc2cccc(OCC(=O)N3CCN(c4ccc([N+](=O)[O-])cc4)CC3)c2O1 | 19.7 |
| O=C(CCc1ccc(S(=O)(=O)N2CCOCC2)cc1)Nc1ccc2ccccc2c1 | 13.4 |

Please look at the following compound next.
Data request, read-out inhibition, for CCN1/C(=C/c2ccc3ccc(C)cc3[n+]2CC)Sc2ccccc21
107

----------
molecular target: Nuclear receptor coactivator 1 (Homo sapiens); experiment: SRC1 coactivator transcriptional activity inhibitors, confirmation, cell-based, luminescence, quadruplicate (AID 588820); conditions: HEK293 GAL4-SRC1 luciferase reporter, at 3.6 µM;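 note: 0% = DMSO wells and 100% = gossypol 36 µM treated wells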
Active and inactive are the calls of the source.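 How the source made its calls: active means mean inhibition above 46.68%, the untreated control wells mean plus 3 SD; inactive means the rest.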
Entry note: the call must match one of active, inactive

Previously resolved entries follow.
| compound | assigned category |
| --- | --- |
| COc1cc2c(cc1OC)CN(C(=O)c1cc(S(=O)(=O)N3CCOCC3)ccc1C)CC2 | inactive |
| Cc1cc(-c2ccc(F)cc2)n2ncc(-c3ccccc3)c2n1 | inactive |
| NC1=C(Cl)C(=O)c2ccc(S(N)(=O)=O)cc2C1=O | active |
| Cc1ccc(NC(=O)O/N=C/c2c(C)nn(C(C)(C)C)c2C)cc1Cl | active |
| CCCCCOc1ccc(/C=C/c2c([N+](=O)[O-])c(=O)n(C)c(=O)n2C)cc1 | inactive |
| CC(C)(C)[C@H]1C=C(C(=O)Nc2ccccc2)O[C@@H](OCCCCO)C1 | inactive |
| CCCOc1ccc(/C=N/Nc2ccccc2[N+](=O)[O-])c(O)c1 | inactive |
| Cc1cc(N2CCOCC2)c2c(N)c(Br)cc(C)c2n1 | active |

Tell me the assay call for CC(C)n1c(SCC(=O)Nc2nc3c(s2)CCCC3)nc2c1c(=O)n(C)c(=O)n2C please.
inactive

Tell me the assay call for COc1ccc2cc(/C=N/NC(=O)c3ccc(CN(c4ccc(C)c(C)c4)S(C)(=O)=O)cc3)c(Cl)nc2c1 please.
inactive

Tell me the assay call for O=C(Nc1c(-c2ccccc2)[nH][nH]c1=O)c1cccc(C(F)(F)F)c1 please.
inactive

Tell me the assay call for COc1ccc(-c2cc(=O)oc3c(C)c(O)ccc23)cc1 please.
active

Tell me the assay call for Clc1ccc(OCCN2CCN(c3ncnc4sccc34)CC2)cc1 please.
inactive

Tell me the assay call for Nc1ccc(Cn2ccc3c4c(N)nc(N)nc4ccc32)cc1 please.
active

----------
molecular target: Peroxisome proliferator-activated receptor gamma (Homo sapiens); assay: agonists of PPARgamma SRC-2 coactivator recruitment, confirmation, biochemical, HTS (AID 1297); conditions: biochemical SRC-2 recruitment by PPARgamma; at 8 µM; active compounds read high;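 note: 0% = vehicle alone and 100% = reference agonist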
This is one part of the list.
recorded metric: activation (%)
Please respond with the number in % and leave the unit unwritten.

| compound | activation, % |
| --- | --- |
| O=C(CSc1c2c(nc3ccc(Cl)cc13)CCCC2)NCc1ccco1 | 19.2 |

Data request, read-out activation, for CCN(CC)c1ccc2oc(=O)c(C)nc2c1
7.05

Data request, read-out activation, for COC(=O)Cn1cc(C(=O)c2cccs2)c2ccccc21
-2.1

Data request, read-out activation, for Cc1ccc(OCC(=O)Nc2ccc(-c3nc4ncccc4o3)cc2)cc1
2.88

Data request, read-out activation, for COC(=O)c1ccccc1SC1CC(=O)N(c2cccc(C)c2)C1=O (stereo unspecified)
0.78

Data request, read-out activation, for Cc1nc(-c2ccccc2)sc1-c1nc(-c2ccccc2)ncc1S(=O)(=O)c1ccccc1
48.5

----------
Below: a set of entries, each annotated with reported inhibition.
target: Steroidogenic factor 1 (Homo sapiens) (UniProt Q13285); assay: SF1 (NR5A1) inverse agonists, counter-screen for LRH-1 inverse agonist project, cell-based, luminescence, high throughput (AID 651614); details: cell-based SF1 luciferase reporter, at 3.6 µM, active compounds read high;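 note: cells cotransfected with StAR promoter reporter and SF1 expression vector; 0% = vehicle on cells with receptor and 100% = vehicle on cells lacking receptor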
Sequence (Q13285 whole entry, looked up): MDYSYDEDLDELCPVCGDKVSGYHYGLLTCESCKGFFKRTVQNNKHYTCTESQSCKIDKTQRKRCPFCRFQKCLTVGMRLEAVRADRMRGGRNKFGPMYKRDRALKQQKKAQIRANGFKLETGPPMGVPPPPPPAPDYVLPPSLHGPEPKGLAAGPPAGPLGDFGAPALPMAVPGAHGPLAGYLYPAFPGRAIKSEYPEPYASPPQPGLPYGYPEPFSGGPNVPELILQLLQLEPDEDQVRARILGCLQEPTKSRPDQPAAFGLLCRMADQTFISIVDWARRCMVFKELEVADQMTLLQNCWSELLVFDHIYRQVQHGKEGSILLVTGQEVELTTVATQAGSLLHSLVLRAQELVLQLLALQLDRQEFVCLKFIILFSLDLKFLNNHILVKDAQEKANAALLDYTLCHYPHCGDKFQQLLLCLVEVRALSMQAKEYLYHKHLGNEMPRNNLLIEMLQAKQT
Please respond with the number in % and leave the unit unwritten.

| compound | inhibition, % |
| --- | --- |
| CN(CCc1ccccc1)C(=O)c1ccc(NC(=O)Cc2ccc(NC(=O)C3CCCN(C(=O)CCc4ccccc4)C3)cc2)cc1 (configuration not stated) | 64.5 |
| CCCOc1ccc(Br)cc1CSC(=N)N | 53.8 |
| O=[N+]([O-])c1cnccc1Nc1ccc(Cl)cc1 | 60.5 |
| CC(NC(=O)Nc1nnc(C(F)(F)F)s1)(C(F)(F)F)C(F)(F)F | 89.4 |
| COc1cc(NC(=O)c2ccc([N+](=O)[O-])o2)ccc1NC(=O)c1cccs1 | 61.9 |

Data request, read-out inhibition, for COc1ccc(-c2c[n+](CC(=O)OC3CC(C)CCC3C(C)C)c3n2CCC3)cc1 (configuration not stated)
62.6

Data request, read-out inhibition, for CCCn1c2c(c(=N)c3c1CCC3)CCCC2
55

Data request, read-out inhibition, for CC(=O)c1ccc(NC(=O)CSc2nc3[nH]ncc3c(=O)[nH]2)cc1
50.8

Data request, read-out inhibition, for CC(C)(C)c1ccc(-c2cn(-c3ccc(Br)cc3)c3[n+]2CCCS3)cc1
80.7

Data request, read-out inhibition, for CCOc1cc2c(cc1OCC)C(c1ccc(OC)cc1)N(c1ccccc1)C(=O)C2 (configuration not stated)
-5

Data request, read-out inhibition, for O=C(CSc1ncnc2c1cnn2Cc1ccccc1)Nc1ccc2c(c1)OCCO2
54

Data request, read-out inhibition, for C#CCN(C[C@@H]1[C@@H](OC(=O)NCc2ccc(OC)c(OC)c2)[C@@H](OC(=O)NCc2ccc(OC)c(OC)c2)Cn2c(=O)ccc(=O)n21)S(=O)(=O)c1ccc(C)cc1
35.7
